- Tested on: C57BL/6 mice
- PROTOCOL DETAILS: Depression model test of anti-blepharoptosis caused by reserpine (akinesia, blepharoptosis, shell temperature)
- Format: in vivo
- TEST CONDITIONS: 10 mg/kg; compared with I-1
- Experimental: 120 male C57BL/6 mice were randomly selected to observe the number of their autonomic activity. The mice was placed into the YLS-1A multi-functional mice autonomic activity recorder, and after 1 min of adaption, the activity of the mice was counted within a time period from the end of 1st min to 4th min. […] III Shell temperature: two hours after intraperitoneal injection of reserpine, the shell temperature of the abdomen of the mice was measured. […]
MEASURED PROPERTY: Degree of eye closure / blepharoptosis after reserpine compared with I-1 (in words)

What measured Degree of eye closure / blepharoptosis after reserpine compared with I-1 (in words) goes with CCN(CC)C(=O)/C=C/c1cc2c(c(C(F)(F)F)c1)OCO2 ?
increased improvement

What measured Degree of eye closure / blepharoptosis after reserpine compared with I-1 (in words) goes with CC(C)CNC(=O)/C=C/c1cc2c(c(C(F)(F)F)c1)OCO2 ?
reduced

What measured Degree of eye closure / blepharoptosis after reserpine compared with I-1 (in words) goes with O=C(/C=C/c1cc2c(c(C(F)(F)F)c1)OCO2)N1CCCCC1 ?
increased improvement

What measured Degree of eye closure / blepharoptosis after reserpine compared with I-1 (in words) goes with CC(C)CNC(=O)/C=C/c1cc(I)c2c(c1)OCO2 ?
reduced

Let us examine a further case.
What measured Degree of eye closure / blepharoptosis after reserpine compared with I-1 (in words) goes with CC(C)CNC(=O)/C=C/c1cc(Cl)c2c(c1)OCO2 ?
reduced
